System: SK-MEL-5 melanoma
Assay: NCI tumour cell line growth inhibition, 48 h
measuredAttribute: TGI

CC(=O)Nc1ccc(-c2nc3cc(Cl)ccc3o2)cc1 = > 50 µM
Nc1c(C(=O)Nc2cccc(Br)c2)sc2nc3c(cc12)C(=O)CCC3 = > 100 µM
COC(=O)CN(C)P(=O)(N1CC1)N1CC1 = > 100 µM
NCCCNCCCCNCCCN = > 100 µM
O=c1c2ccccc2sc2cccc(NCCCN3CCN(CCCNc4cccc5sc6ccccc6c(=O)c45)CC3)c12 = > 100 µM

Provide the reported TGI of each entry below, same order.
1. COc1ccc(OC)c(C2Cc3cnc4nc(N)nc(N)c4c3C2)c1 (centres undefined)
2. Cc1nc2cnc(N)c(C#Cc3cncc(C(=O)Nc4ccc(CN5CCN(C)CC5)c(C(F)(F)F)c4)c3)c2nc1C
3. O=c1cc(-c2ccccc2)[nH]c2c(S)cccc12

## Result
> 100 µM
6.07 µM
> 100 µM

Provide the reported TGI of each entry below, same order.
1. C[C@H]1C2Cc3cc(N)ccc3[C@@]1(C)CCN2CCc1ccccc1
2. Cc1ccc(Cn2c(C)nc3c2C(=O)c2ccccc2C3=O)cc1
3. COc1cc(C2c3cc4c(cc3C(O)C(CO)C2CO)OCO4)cc(OC)c1OC (centres undefined)
4. CC(C)(C)[Si](C)(C)OC1/C(=C/C#N)C(n2ccc(=O)[nH]c2=O)OC1CO (centres undefined)
5. CCOc1ccc2nc(S/C(=C/C=C(C#N)C#N)c3ccc(C)cc3)sc2c1
6. O=[N+]([O-])c1ccc(-n2nnc(C3=NCCN3)c2-c2ccc(Cl)cc2)cc1

## Result
["37.2 µM", "19.5 µM", "> 72 µM", "> 100 µM", "57.4 µM", "> 100 µM"]

Provide the reported TGI of each entry below, same order.
1. CCOC(=O)C(=Cc1cccc(Cl)c1)C(=O)OCC
2. Cc1c(Cl)cccc1N1C(=O)C(Cl)=C(Cl)C1=O

## Result
1. 3.35 µM
2. > 100 µM

Provide the reported TGI of each entry below, same order.
1. Cc1nc2ccccc2nc1-c1ccc(N=[N+]([O-])c2ccc(-c3nc4ccccc4nc3C)cc2)cc1
2. N#Cc1c(-c2ccc(F)cc2)c(-c2ccc(F)cc2)nn(CCO)c1=O
3. CC(=O)Nc1ccc(-c2nc3ccccc3s2)cc1
4. Cc1c(CNc2ccc(C(=O)NC(CC(=O)O)C(=O)O)cc2)ccc2nc(N)nc(N)c12 (centres undefined)

## Result
1. > 100 µM
2. > 4.64 µM
3. > 100 µM
4. > 1000 µM

Provide the reported TGI of each entry below, same order.
1. Cc1c(O)c(C)c2c(C)cn(C(=O)C(C)(C)C)c2c1C
2. O=c1[nH]cc(COCCO)c(=O)[nH]1

## Result
["27.8 µM", "> 100 µM"]

Provide the reported TGI of each entry below, same order.
1. c1ccc(SC2CCSc3ccccc3C2Sc2ccccc2)cc1 (centres undefined)
2. Cc1ccc(/C=C/c2c(C(=O)/C=C/c3ccc(C(F)(F)F)cc3)c(C)nc3ccccc23)cc1

## Result
> 100 µM
2.87 µM

---

Could you please report measured TGI for the items listed next?
System: HL-60(TB) leukemia
Experiment: NCI tumour cell line growth inhibition, 48 h
Answers are plain numbers, in µM.

A selection of reference data follows.
O=S(Cc1ccccn1)c1nc2ccccc2nc1-c1ccccc1 (configuration not stated) = 80.7
COc1ccc(-c2nc(SCC(=O)N/N=C/c3ccc(O)c(OC)c3)[nH]c2-c2ccc(OC)cc2)cc1 = 32.4
COc1ccc(-c2oc(=O)ccc2-c2cc(OC)c(OC)c(OC)c2)cc1F = 26.8
O=C(NS(=O)(=O)OCC(Cl)(Cl)Cl)SCCC(F)(F)C(F)(F)C(F)(F)C(F)(F)C(F)(F)C(F)(F)F = 51.2
CC(C)C1=C(Cc2ccccc2)C(=O)O/C1=C\c1cc(Cl)c(O)c(Cl)c1 = 41.7

Provide the reported TGI of each entry below, same order.
1. C[C@H]1[C@H](C)CC[C@]2(C(=O)OCCOCCOCC[P+](c3ccccc3)(c3ccccc3)c3ccccc3)CC[C@]3(C)C(=CC[C@@H]4[C@@]5(C)CC[C@H](OC(=O)C(Cl)Cl)C(C)(C)[C@@H]5CC[C@]43C)[C@H]12
2. Cc1ccsc1/C=N/Nc1ccc2ccccc2n1
3. COC(=O)C1(OC(=O)Sc2ccccc2)CCN(C)CC1

## Result
1: 0.804; 2: 40.1; 3: 24

Attribution: PubChem BioAssay (NCI)
